Biological target: Cytochrome P450 2C9 (Homo sapiens, UniProt P11712)
Sequence (P11712 whole entry): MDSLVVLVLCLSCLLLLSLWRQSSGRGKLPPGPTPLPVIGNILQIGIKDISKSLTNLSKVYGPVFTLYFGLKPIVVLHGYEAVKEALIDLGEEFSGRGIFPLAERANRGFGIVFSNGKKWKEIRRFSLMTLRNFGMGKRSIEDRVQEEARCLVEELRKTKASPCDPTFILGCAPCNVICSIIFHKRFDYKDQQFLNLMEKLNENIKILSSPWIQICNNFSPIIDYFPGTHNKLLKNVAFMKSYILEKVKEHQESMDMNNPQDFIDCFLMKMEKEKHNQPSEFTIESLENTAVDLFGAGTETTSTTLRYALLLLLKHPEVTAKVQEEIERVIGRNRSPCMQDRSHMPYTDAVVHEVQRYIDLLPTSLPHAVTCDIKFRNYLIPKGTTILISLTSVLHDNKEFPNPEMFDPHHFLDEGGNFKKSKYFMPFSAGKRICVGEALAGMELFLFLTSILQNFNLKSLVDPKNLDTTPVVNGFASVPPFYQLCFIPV
Experiment: Inhibition of CYP2C9 (unknown origin) at 1 uM
Format: ADME
OBSERVED PROPERTY: inhibition (INH)

Returns the measured inhibition (INH) for the input compound. Input: `c1ccc(CNCC[C@H]2CCC[C@@H](c3ccccc3)O2)cc1` Not Active

And `c1ccc(CNCC[C@@H]2CCC[C@H](c3ccccc3)O2)cc1` ? Not Active

Repeat for the following compound: `c1ccc([C@H]2CCC[C@@H](CCNCC3CCCCC3)O2)cc1` Not Active

What do you have for `c1ccc([C@@H]2CCC[C@H](CCNCC3CCCCC3)O2)cc1` ? Not Active
